Target: PPARG (peroxisome proliferator activated receptor-gamma), GST-PPARG-LBD (Homo sapiens, UniProt P37231)
Construct: 15 μL of 5 nM GST-PPARG-LBD and 5 nM Tb-GST-antibody were added; purchased Invitrogen PV4894
Sequence (P37231 238-503 limits assumed): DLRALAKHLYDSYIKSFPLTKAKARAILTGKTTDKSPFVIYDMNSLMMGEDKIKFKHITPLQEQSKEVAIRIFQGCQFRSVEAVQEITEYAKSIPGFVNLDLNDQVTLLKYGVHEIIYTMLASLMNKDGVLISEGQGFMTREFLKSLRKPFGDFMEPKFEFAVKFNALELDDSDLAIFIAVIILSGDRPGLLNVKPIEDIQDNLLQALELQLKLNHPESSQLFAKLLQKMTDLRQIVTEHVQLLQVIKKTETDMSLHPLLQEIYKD
Test: LanthaScreen TR-FRET PPARG Competitive Binding Assay
Design: key: “+” indicates the degree of the binding activity, and as the number of “+” increases, the binding activity is stronger; ++: “+” indicates the degree of the binding activity, and as the number of “+” increases, the binding activity is stronger; +++: “+” indicates the degree of the binding activity, and as the number of “+” increases, the binding activity is stronger; ++++: “+” indicates the degree of the binding activity, and as the number of “+” increases, the binding activity is stronger
Conditions: degree of binding activity
Method: The following experiment was performed to evaluate the PPARG (peroxisome proliferator activated receptor-gamma) binding capacity and transcriptional activity of the compounds prepared in the examples of the invention. […] Upon completion of the reaction, fluorescence value was measured by using Flexstation 3 (Molecular Devices) with time-resolved fluorescence (RFU) mode (excitation 1: 340 nm, emission 1: 518 nm, excitation 2: 340 nm, emission 2: 488 nm, integration delay 50 μs, integration 400 μs). […]

{"columns": ["Chemical String", "Binding assay (1 μLM)"],
 "data": [
  ["C[C@H](NC(=O)c1ccc2c(c1)CCCN2Cc1ccc(-c2ccccc2C(=O)[O-])cc1)c1ccc(C#N)cc1.[Na+]", "+++"],
  ["NC(=O)c1ccccc1-c1ccc(CN2CCCc3cc(C(=O)NCc4ccc(Br)cc4)ccc32)cc1", "+++"],
  ["Cc1ccc([C@H](C)NC(=O)c2ccc3c(c2)CCCN3Cc2ccc(-c3ccccc3C(=O)O)cc2)cc1F", "++"],
  ["C[C@H](NC(=O)c1ccc2c(c1)CCCN2Cc1ccc(-c2ccccc2C(N)=O)cc1)c1cccc2ccccc12", "++"],
  ["Cc1ccc([C@H](C)NC(=O)c2ccc3c(c2)OCCN3Cc2ccc(-c3ccccc3C(=O)O)c(F)c2)cc1F", "+++"],
  ["C[C@H](NC(=O)c1ccc2c(c1)CCCN2Cc1ccc(-c2ccccc2C(N)=O)cc1)c1ccc(OC(F)(F)F)cc1", "++++"],
  ["COc1cccc([C@H](C)NC(=O)c2ccc3c(c2)CCCN3Cc2ccc(-c3ccccc3C(=O)O)cc2)c1", "+++"]
]}

These data points were gathered from patent US20160355483A1.
